Reported pIC50 values for the following molecules.
Test target: Glutamate NMDA receptor
Test summary: Displacement of [3H]-ifenprodil from rat cortical membranes NMDA receptor by beta counting analysis in absence of spermine
To interpret pIC50, take it as minus log10 of a concentration measured in moles per litre.

Look over these answered cases.
CCN(CCNc1ccc(C(=N)N)cc1)c1ccc(C(=N)N)cc1 | 4.89
CN(CCN(C)c1ccc(C(=N)N)cc1)c1ccc(C(=N)N)cc1 | 4.77
N=C(N)c1ccc(NCCCNc2ccc(C(=N)N)cc2)cc1 | 4.11

# input molecule: `NCCCCCCCCCCCCN` ; wanted: its pIC50 3.02

# input molecule: `N=C(N)c1ccc(OCc2ccc(COc3ccc(C(=N)N)cc3)cc2)cc1` ; wanted: its pIC50 4.97
